Ref: patent US20100168125A1

EXPERIMENTAL TARGET: dopamine D2short receptor (Homo sapiens)
Sequence (P14416 1-414 isoform P14416-2): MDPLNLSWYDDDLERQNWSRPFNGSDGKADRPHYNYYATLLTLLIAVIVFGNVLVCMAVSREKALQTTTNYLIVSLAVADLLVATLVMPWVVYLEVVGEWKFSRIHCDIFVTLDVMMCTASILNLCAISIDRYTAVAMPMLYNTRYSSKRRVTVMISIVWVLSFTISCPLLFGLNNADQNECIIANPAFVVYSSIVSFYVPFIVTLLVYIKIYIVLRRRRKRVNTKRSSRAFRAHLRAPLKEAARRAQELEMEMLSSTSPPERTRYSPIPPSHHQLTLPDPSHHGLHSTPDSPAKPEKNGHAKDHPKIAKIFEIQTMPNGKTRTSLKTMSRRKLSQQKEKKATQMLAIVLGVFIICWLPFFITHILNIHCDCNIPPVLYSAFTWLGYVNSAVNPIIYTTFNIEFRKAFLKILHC
PROCEDURE TEXT: [^35S]GTPγS-incorporation assay, intrinsic activity
PROTOCOL CONDITIONS: read-out: D2short: [^35S]GTPγS intrinsic activity, % activity of quinpirol
READOUT KIND: Emax

What value of Emax has been recorded for this entry: COc1ccccc1N1CCN(CCCCOc2ccn3ncc(CNC(C)=O)c3c2)CC1 [Example E81]
< 15%

Try the molecule O=Cc1cnn2ccc(COCCCN3CCN(c4cccc(Cl)c4Cl)CC3)cc12 [Example E14]
15 to 40%

Queued: N#Cc1cnn2ccc(OCCCCN3CCN(c4ccccc4Cl)CC3)cc12 [Example E38]
15 to 40%

Now try COc1ccccc1N1CCN(CCCCOc2cccc3ccnn23)CC1 [Example E58] .
15 to 40%

Okay, and COc1ccccc1N1CCN(CCCCOc2ccn3ncc(Cl)c3c2)CC1 [Example E46] ?
< 15%

Others:
# Emax lookup, item Clc1cccc(N2CCN(CCCCOc3cc4ccccn4n3)CC2)c1Cl [Example E1]
< 15%

How about COC(=O)c1cnn2ccc(OCCCCN3CCN(c4ccccc4Cl)CC3)cc12 [Example E41] ?
15 to 40%

What do you have for Clc1cccc(N2CCN(CCCCOc3ccn4ncc(Cl)c4c3)CC2)c1Cl [Example E45] ?
15 to 40%

Proceed to O=Cc1c(OCCCCN2CCN(c3cccc(Cl)c3Cl)CC2)nn2ccccc12 [Example E4]
15 to 40%

Now consider O=Cc1cnn2cc(OCCCCN3CCN(c4ccccc4Cl)CC3)ccc12 [Example E56] and answer again.
15 to 40%

What do you have for COc1ccccc1N1CCN(CCCCOc2cccn3nccc23)CC1 [Example E8] ?
< 15%

Another: O=Cc1cnn2ccc(OCCCCN3CCN(c4ccc(O)cc4)CC3)cc12 [Example E26]
40 to 75%
